- System: E. multilocularis metacestode vesicles
- assayText: Metacestode vesicle viability assay (ATP, CellTiter-Glo)
- Format: cell-based, Echinococcus multilocularis
- protocolConditions: overview screen, 10 μM, singlets, 12 days, relative to DMSO control
// assign Yes if Viability d12 (relative viability) falls strictly below 70%, else No (ties count as No)

Check out these entries, answers already filled in.
OB1OCc2cc(Cl)ccc21: No
CC[C@@H]1C(=O)OC[C@@H]1Cc1cncn1C.Cl: No

Consider "CCCCCCCCCN1C[C@@H](O)[C@H](O)[C@@H](O)[C@@H]1CO" . Does its Viability d12 (relative viability) lie strictly below 70%?
No

Strictly below 70% in Viability d12 (relative viability)? "CO[C@@]1(NC(=O)Cc2cccs2)C(=O)N2C(C(=O)O)=C(COC(N)=O)CS[C@@H]21"
No

----------
- System: E. multilocularis metacestode vesicles
- assayText: Metacestode vesicle viability assay (ATP, CellTiter-Glo)
- Type: cell-based, Echinococcus multilocularis
- protocolConditions: overview screen, 10 μM, singlets, 12 days, relative to DMSO control
Output Criterion met for records whose Viability d12 (relative viability) is lower than 70%, Criterion not met for records at or above 70%.

Example entries begin here.
O=c1cc(OCc2ccccc2)ccn1Cc1ccccc1: Criterion met
CCC(C)(C)c1ccc(CC(C)CN2C[C@@H](C)O[C@@H](C)C2)cc1.Cl (stereo partly drawn): Criterion met
COc1cc2c(O)c3c(c(-c4ccc5c(c4)OCO5)c2cc1OC)C(=O)OC3: Criterion not met
Cc1ccc(Oc2ccccc2-c2csc(N=C3NCCCN3)n2)c(C)c1: Criterion met
COc1ccc(COc2cc3oc(=O)c4cc(C(C)O)ccc4c3cc2OC)cc1 (stereo not drawn): Criterion not met
N[C@@H]1CN(c2c(F)cc3c(=O)c(C(=O)O)cn([C@@H]4C[C@@H]4F)c3c2Cl)CC12CC2: Criterion not met

Strictly below 70%: is that where Viability d12 (relative viability) of "CC1=C(/C=C/C(C)=C/C=C/C(C)=C/C(=O)Nc2ccc(O)cc2)C(C)(C)CCC1" sits?
Criterion met

Lab note: Viability d12 (relative viability) threshold 70%. Does this compound come in strictly under it? "CCOCc1nc2c(N)nc3ccccc3c2n1CC(C)(C)O"
Criterion met

Strictly below 70% in Viability d12 (relative viability)? CCOc1ccc(/C=N/NC(=O)C2CC2c2ccc(C(C)(C)C)cc2)cc1OCC (stereo not drawn)
Criterion not met

----------
- Tested on: E. multilocularis metacestode vesicles
- assayText: Phosphoglucose isomerase (PGI) release assay (damage-marker release) on metacestode vesicles
- Format: cell-based, Echinococcus multilocularis
- protocolConditions: overview screen, 10 μM, singlets, 5 days, relative to 0.1 % Triton X-100, DMSO subtracted
measure: PGI d5 (relative PGI release) (%)
Just the number please, in %, no unit attached.

Oc1ccc2[nH]c(-c3ccccc3)nc2c1: -3.6461
NC(=O)c1c(N)sc2c1CCCCC2: 0.2417

# get_value(readout='PGI d5 (relative PGI release)', item= "CC(C)n1cnc2c(NCc3ccccc3)nc(NCc3ccccc3)nc21" )
13.6684

----------
- System: E. multilocularis metacestode vesicles
- assayText: Phosphoglucose isomerase (PGI) release assay (damage-marker release) on metacestode vesicles
- Type: cell-based, Echinococcus multilocularis
- protocolConditions: overview screen, 10 μM, singlets, 5 days, relative to 0.1 % Triton X-100, DMSO subtracted
measure: PGI d5 (relative PGI release) (%)
Quick note: give the figure in %, leave out the unit.

O=C(Nc1ccc(N2CCN(C(=O)c3ccccc3)CC2)cc1)c1ccc2c(c1)OCO2 [MMV1580505]: -0.142
CC[C@@H]1C(=O)OC[C@@H]1Cc1cncn1C.Cl [MMV002516]: -2.121
CCc1c(O)nc2ccc(F)cc2c1OCC1CCC1 [MMV1634395]: -0.4952
C[C@H](c1cccc2ccccc12)N(C)Cc1ccccc1 [MMV1782221]: 2
Oc1c(C(Nc2nc3ccccc3s2)c2ccc(OC(F)F)cc2)ccc2cccnc12 (stereo not drawn) [MMV019724]: 0.06264

Consider the compound CN1c2ccc(Cl)cc2N(c2ccccc2)C(=O)c2cn(Cc3ccc(CN4CCOCC4)cc3)nc21 [MMV1782222] and give its measured PGI d5 (relative PGI release).
-0.005582

Fill blank: measured PGI d5 (relative PGI release) of the compound Nc1cc(N)c2nc(-c3ccccc3)c(Nc3ccc(F)cc3)nc2c1 [MMV1581554] is ____.
4.452

Any idea what its PGI d5 (relative PGI release) is? The compound is CC[C@H](CO)NCCN[C@H](CC)CO [MMV687801]
-2.724

// query PGI d5 (relative PGI release) value for entry Nc1nc2c(Cc3cccnc3)c[nH]c2c(=O)[nH]1 [MMV1782355]
-0.9111
